target: GST tagged LXRbeta LBD (ligand binding domain) (Homo sapiens, UniProt P55055); construct: purchased Invitrogen pv4658.pps; test: LanthaScreen TR-FRET Liver X Receptor Coactivator Assay, LXR beta-LBD; type: biochemical; details: activity at max dose (efficacy), relative to reference T0901317; read-out: LXR beta act @ max dose (%)
Sequence (P55055 222-460 limits assumed): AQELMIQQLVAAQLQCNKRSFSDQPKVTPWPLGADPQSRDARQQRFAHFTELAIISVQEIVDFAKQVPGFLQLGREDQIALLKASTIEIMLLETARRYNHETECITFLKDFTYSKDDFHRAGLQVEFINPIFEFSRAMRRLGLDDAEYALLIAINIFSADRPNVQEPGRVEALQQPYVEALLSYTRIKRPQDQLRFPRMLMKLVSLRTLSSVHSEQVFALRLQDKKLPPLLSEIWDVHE
Description: […]
The following compounds are listed with their measured Emax values.
Respond numerically; units are % and should not be typed.

// solved cases for Emax follow
{"columns": ["COMPOUND", "Emax (%)"],
 "data": [
  ["CN(C)C(=O)c1ccc(N2CCC(C3CCN(S(=O)(=O)c4c(Cl)cccc4Cl)CC3)CC2)cc1Cl", 129],
  ["CN(Cc1noc(C2CC2)n1)C(=O)c1ccc(N2CCC(C3CCN(C(=O)[C@](O)(c4ccccc4)C(F)(F)F)CC3)CC2)cc1Cl", 93],
  ["O=C(c1ccc(N2CCC(C3CCN(C(=O)[C@](O)(c4ccccc4)C(F)(F)F)CC3)CC2)cc1Cl)N(CCF)CCF", 106],
  ["CN(C)C(=O)c1ccc(N2CCC(C3CCN(C(=O)C4(c5ccccc5F)CCCC4)CC3)CC2)cc1Cl", 108]
]}

Q: Entry "CN(C)C(=O)c1ccc(N2CCC(C3CCN(C(=O)C4(c5ccc(Cl)cc5Cl)CCC4)CC3)CC2)cc1Cl" , system GST tagged LXRbeta LBD (ligand binding domain) (Homo sapiens, UniProt P55055): what Emax was measured?
Result: 86

Q: Return Emax measured with GST tagged LXRbeta LBD (ligand binding domain) (Homo sapiens, UniProt P55055) given this compound: COc1cccc(C(O)(C(=O)N2CCC(C3CCN(c4ccc(C(=O)N(C)C)c(Cl)c4)CC3)CC2)C(F)(F)C(F)(F)F)c1 (centres unmarked)
Result: 104

Q: Fill in the recorded Emax for this compound, with GST tagged LXRbeta LBD (ligand binding domain) (Homo sapiens, UniProt P55055) as test system: "CN(C)C(=O)c1ccc(N2CCC(C3CCN(C(=O)C4(c5ccccc5)CCCC4)CC3)CC2)cc1Cl"
Result: 113

Q: Lab note: need Emax for CN(C)C(=O)c1ccc(N2CCC(C3CCN(C(=O)C(O)(c4ccccc4F)C(F)(F)F)CC3)CC2)cc1Cl (centres unmarked) on GST tagged LXRbeta LBD (ligand binding domain) (Homo sapiens, UniProt P55055), anyone have it?
Result: 107

Q: Enter reported Emax observed with GST tagged LXRbeta LBD (ligand binding domain) (Homo sapiens, UniProt P55055) for CC(C)C(O)(C(=O)N1CCC(C2CCN(c3ccc(C(=O)N(C)C)c(Cl)n3)CC2)CC1)C1CC1 (centres unmarked)
Result: 143

Q: What is its Emax for GST tagged LXRbeta LBD (ligand binding domain) (Homo sapiens, UniProt P55055)? Entry: "CN(C)C(=O)c1ccc(N2CCC(C3CCN(S(=O)(=O)c4ccccc4)CC3)CC2)cc1Cl"
Result: 54

Q: Checklist item: Emax tested on GST tagged LXRbeta LBD (ligand binding domain) (Homo sapiens, UniProt P55055), entry CC1CCCN(C(=O)c2ccc(N3CCC(C4CCN(C(=O)[C@](O)(c5ccccc5)C(F)(F)F)CC4)CC3)cc2Cl)C1 (some centres unmarked) , value?
Result: 57
